biological target: GDP-loaded HIS-KRAS(G12D, aa 1-169) (Homo sapiens, UniProt P01116, G12D); construct: GDP-loaded HIS-KRAS(G12D, aa 1-169); assay: SOS1 catalyzed nucleotide exchange assay (TR-FRET); conditions: 4 hours at 25° C.
Sequence (P01116 1-169 isoform P01116-2 G12D): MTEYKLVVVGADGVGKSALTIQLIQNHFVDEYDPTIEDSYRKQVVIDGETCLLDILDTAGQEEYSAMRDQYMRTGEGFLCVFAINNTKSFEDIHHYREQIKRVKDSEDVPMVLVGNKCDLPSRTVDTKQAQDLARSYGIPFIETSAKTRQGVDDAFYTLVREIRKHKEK
Field: pIC50. Provide a value for each of the compounds that follow.
Conceptually, pIC50 converts a concentration in mol/L into minus its log10.

Data request: For C#Cc1cccc2cc(O)cc(-c3c(F)cc4c(N5CC6CCC(C5)N6)nc(OCC5(CN6CCC7(CC6)CC7(F)F)CC5)nc4c3F)c12 [Compound 3] , what is its reported pIC50?
Data returned: 7.43

Data request: For C#Cc1c(F)ccc2cc(O)cc(-c3c(C(F)(F)F)cc4c(N5CC6CCC(C5)N6)nc(OCC5(CN6C[C@@H]7C[C@H]6CO7)CC5)nc4c3F)c12 [Compound 40] , what is its reported pIC50?
Data returned: 8.89

Data request: For C#Cc1cccc2cc(O)cc(-c3c(F)cc4c(N5CC6CCC(C5)N6)nc(OCC5(CN6CCCC7(C6)CC7(F)F)CC5)nc4c3F)c12 (stereo not drawn) [Compound 5] , what is its reported pIC50?
Data returned: 7.26

Data request: For C#Cc1c(F)ccc2cc(O)cc(-c3c(C(C)C)cc4c(N5CC6CCC(C5)N6)nc(OCC5(CN6C[C@@H]7C[C@H]6CO7)CC5)nc4c3F)c12 [Compound 38] , what is its reported pIC50?
Data returned: 8.94

Data request: For C#Cc1cccc2cc(O)cc(-c3c(F)cc4c(N5CC6CCC(C5)N6)nc(OCC5(CN6CCC7(CC6)CC7)CC5)nc4c3F)c12 [Compound 28] , what is its reported pIC50?
Data returned: 8.75

Data request: For C#Cc1cccc2cc(O)cc(-c3c(F)cc4c(N5CC6CCC(C5)N6)nc(OCC5(CN6Cc7ccccc7C6)CC5)nc4c3F)c12 [Compound 58] , what is its reported pIC50?
Data returned: 8.69

----------
test system: AsPC-1; assay: Cell growth inhibition assay, AsPC-1 (CellTiter-Glo); format: cell-based; conditions: Homo sapiens, ASPC1, 144 h; AsPC-1 cell viability, 6 days incubation
Field: pIC50. Provide a value for each of the compounds that follow.
Conceptually, pIC50 converts a concentration in mol/L into minus its log10.

Data request: For C#Cc1cccc2cc(O)cc(-c3c(F)cc4c(N5CC6CCC(C5)N6)nc(OCC5(CN6CCC7(CCCCO7)C6)CC5)nc4c3F)c12 (centres unmarked) , what is its reported pIC50?
Data returned: 6.68

Data request: For `C#Cc1cccc2cc(O)cc(-c3c(F)cc4c(N5CC6CCC(C5)N6)nc(OCC5(CN6CCCOCC6)CC5)nc4c3F)c12` , what is its reported pIC50?
Data returned: 7.05

Data request: For `C#Cc1cccc2cc(O)cc(-c3c(F)cc4c(N5CC6CCC(C5)N6)nc(OCC5(CN6CCC7(CCOCC7)C6)CC5)nc4c3F)c12` , what is its reported pIC50?
Data returned: 7.11

Data request: For `C#Cc1cccc2cc(O)cc(-c3c(F)cc4c(N5CC6CCC(C5)N6)nc(OCC5(CN6CC7(COC7)C6)CC5)nc4c3F)c12` , what is its reported pIC50?
Data returned: 6.15

Data request: For `C#Cc1cccc2cc(O)cc(-c3ccc4c(N5CC6CCC(C5)N6)nc(OCC5(CN6CC(C)(OC)C6)CC5)nc4c3F)c12` , what is its reported pIC50?
Data returned: 6.82

----------
Field: pIC50. Provide a value for each of the compounds that follow.
molecular target: GppNp-loaded HIS-KRAS(G12D, aa 1-169) and cRAF RBD (Homo sapiens, UniProt P01116, G12D); construct: GppNp-loaded HIS-KRAS(G12D, aa 1-169); test: GTP-KRAS and cRAF interaction assay (HTRF); conditions: 2 hours at 25° C.
Sequence (P01116 1-169 isoform P01116-2 G12D): as above
Conceptually, pIC50 converts a concentration in mol/L into minus its log10.

Data request: For `C#Cc1cccc2cc(O)cc(-c3ccc4c(N5CC6CCC(C5)N6)nc(OCC5(CN6CC(OC)C6)CC5)nc4c3F)c12` , what is its reported pIC50?
Data returned: 6.97

Data request: For `C#Cc1cccc2cc(O)cc(-c3ccc4c(N5CC6CCC(C5)N6)nc(OCC5(CN6CC(C)(OC)C6)CC5)nc4c3F)c12` , what is its reported pIC50?
Data returned: 6.90

Data request: For C#Cc1cccc2cc(O)cc(-c3c(F)cc4c(N5CC6CCC(C5)N6)nc(OCC5(CN6CCC7(CCCCO7)C6)CC5)nc4c3F)c12 (stereo not drawn) , what is its reported pIC50?
Data returned: 7.08

Data request: For C#Cc1cccc2cc(O)cc(-c3c(F)cc4c(N5CC6CCC(C5)N6)nc(OCC5(CN6CCC7(CC6)CC7(F)F)CC5)nc4c3F)c12 [Compound 3] , what is its reported pIC50?
Data returned: 6.94

Data request: For `C#Cc1cccc2cc(O)cc(-c3c(F)cc4c(N5CC6CCC(C5)N6)nc(OCC5(CN6C[C@@H]7OCCO[C@@H]7C6)CC5)nc4c3F)c12` , what is its reported pIC50?
Data returned: 7.37

Data request: For `C#Cc1c(F)ccc2cc(O)cc(-c3c(C(C)C)cc4c(N5CC6CCC(C5)N6)nc(OCC5(CN6C[C@@H]7C[C@H]6CO7)CC5)nc4c3F)c12` , what is its reported pIC50?
Data returned: 8.24

Data request: For `C#Cc1cccc2cc(O)cc(-c3c(F)cc4c(N5CC6CCC(C5)N6)nc(OCC5(CN6CCC7(CC6)COC7)CC5)nc4c3F)c12` , what is its reported pIC50?
Data returned: 7.09

Data request: For `C#Cc1cccc2cc(O)cc(-c3c(F)cc4c(N5CC6CCC(C5)N6)nc(OCC5(CN6CC(C)(OC)C6)CC5)nc4c3F)c12` , what is its reported pIC50?
Data returned: 6.72

Data request: For `C#Cc1cccc2cc(O)cc(-c3c(F)cc4c(N5CC6CCC(C5)N6)nc(OCC5(CN6C[C@H]7C[C@@H]6CO7)CC5)nc4c3F)c12` , what is its reported pIC50?
Data returned: 7.45

Data request: For `C#Cc1c(F)ccc2cc(O)cc(-c3c(C#N)cc4c(N5CC6CCC(C5)N6)nc(OCC5(CN6C[C@@H]7C[C@H]6CO7)CC5)nc4c3F)c12` , what is its reported pIC50?
Data returned: 8.14

Data request: For `C#Cc1cccc2cc(O)cc(-c3ccc4c(N5CC6CCC(C5)N6)nc(OCC5(CN6C7CCC6COC7)CC5)nc4c3F)c12` , what is its reported pIC50?
Data returned: 7.11

Data request: For C#Cc1cccc2cc(O)cc(-c3c(F)cc4c(N5CC6CCC(C5)N6)nc(OCC5(CN6CCC7(C6)CC7(F)F)CC5)nc4c3F)c12 (stereo not drawn) , what is its reported pIC50?
Data returned: 7.10

Data request: For C#Cc1cccc2cc(O)cc(-c3c(F)cc4c(N5CC6CCC(C5)N6)nc(OCC5(CN6CC7CCCC7C6)CC5)nc4c3F)c12 (stereo not drawn) , what is its reported pIC50?
Data returned: 7.29

----------
molecular target: GppNp-loaded HIS-KRAS(G12D, aa 1-169) and cRAF RBD (Homo sapiens, UniProt P01116, G12D); construct: GppNp-loaded HIS-KRAS(G12D, aa 1-169); assay: GTP-KRAS and cRAF interaction assay (HTRF); details: 2 hours at 25° C.
// boundary case: IC50 equal to 100 nM maps to 0; strictly smaller maps to 1

Data request: Hello, is IC50 of the following compound strictly smaller than 100 nM? `C#Cc1cccc2cc(O)cc(-c3c(F)cc4c(N5CC6CCC(C5)N6)nc(OCC5(CN6CC(O)C6)CC5)nc4c3F)c12`
Data returned: 0

Data request: Hello, is IC50 of the following compound strictly smaller than 100 nM? `C#Cc1cccc2cc(O)cc(-c3c(F)cc4c(N5CC6CCC(C5)N6)nc(OCC5(CN6CC7(CC(OC)C7)C6)CC5)nc4c3F)c12`
Data returned: 1

Data request: Hello, is IC50 of the following compound strictly smaller than 100 nM? `C#Cc1cccc2cc(O)cc(-c3c(F)cc4c(N5CC6CCC(C5)N6)nc(OCC5(CN6CC(C)(O)C6)CC5)nc4c3F)c12`
Data returned: 1

Data request: Hello, is IC50 of the following compound strictly smaller than 100 nM? `C#Cc1cccc2cc(O)cc(-c3c(F)cc4c(N5CC6CCC(C5)N6)nc(OCC5(CN6CCC7(CCO7)CC6)CC5)nc4c3F)c12`
Data returned: 1

Data request: Hello, is IC50 of the following compound strictly smaller than 100 nM? `C#Cc1cccc2cc(O)cc(-c3ccc4c(N5CC6CCC(C5)N6)nc(OCC5(CN6CCC7(CC6)CC7)CC5)nc4c3F)c12`
Data returned: 0

Data request: Hello, is IC50 of the following compound strictly smaller than 100 nM? `C#Cc1cccc2cc(O)cc(-c3c(F)cc4c(N5CC6CCC(C5)N6)nc(OCC5(CN6C7COCC6C7)CC5)nc4c3F)c12`
Data returned: 0

Data request: Hello, is IC50 of the following compound strictly smaller than 100 nM? `C#Cc1cccc2cc(O)cc(-c3c(F)cc4c(N5CC6CCC(C5)N6)nc(OCC5(CN6CCC7(CCOCC7)C6)CC5)nc4c3F)c12`
Data returned: 1

Data request: Hello, is IC50 of the following compound strictly smaller than 100 nM? `C#Cc1cccc2cc(O)cc(-c3c(F)cc4c(N5CC6CCC(C5)N6)nc(OCC5(CN6CCc7sccc7C6)CC5)nc4c3F)c12`
Data returned: 0

Data request: Hello, is IC50 of the following compound strictly smaller than 100 nM? `C#Cc1cccc2cc(O)cc(-c3c(F)cc4c(N5CC6CCC(C5)N6)nc(OCC5(CN6CCOC7(CCC7)C6)CC5)nc4c3F)c12`
Data returned: 0
